test system: NCI-H460 lung; experiment: NCI-60 one-dose screen, 48 h; conditions: 10 µM unless noted
About 83,000 compounds went through this panel and 20% of them were active in at least one assay; those are over-represented in the sample as a whole. Active and inactive are the calls of the source. The calls were made as follows: active = growth percent below 10; inactive = the rest.
Allowed answers: active, inactive

These solved cases illustrate the format of a correct answer.
COc1cc(C2=NN(C(C)=O)C(c3cc(OC)c(OC)c(OC)c3)C2)ccc1O (configuration not stated) | active
CCOC(=O)Nc1ccc(-c2ccc3c(c2)NC(=O)/C3=C\c2ccc[nH]2)cc1 | inactive

Exam item: Kindly provide the recorded test outcome for the following compound: COc1cc(C2C3=C(COC3=O)N(CCO)c3cc4c(cc32)CCC4)cc(OC)c1OC (configuration not stated)
Marked response: active

Exam item: Kindly provide the recorded test outcome for the following compound: C=C(C)[C@@H]1CC[C@]2(C(=O)N[C@@H](Cc3ccccc3)C(=O)OC)CC[C@]3(C)[C@H](CC[C@@H]4[C@@]5(C)CCC(=O)C(C)(C)[C@@H]5CC[C@]43C)[C@@H]12
Marked response: inactive

Exam item: Kindly provide the recorded test outcome for the following compound: CN[C@@H](C)C(=O)N[C@H]1CCS[C@H]2CC(C)(C)[C@@H](C(=O)N[C@H]3c4ccccc4C[C@H]3OCC#CC#CCO[C@@H]3Cc4ccccc4[C@@H]3NC(=O)[C@H]3N4C(=O)[C@@H](NC(=O)[C@H](C)NC)CCS[C@H]4CC3(C)C)N2C1=O
Marked response: inactive

Exam item: Kindly provide the recorded test outcome for the following compound: CCCOc1ccc(/C=N/Nc2cc(C)nc3ccc(Cl)cc23)cc1
Marked response: active

Exam item: Kindly provide the recorded test outcome for the following compound: COc1ccc2[nH]c(O)c(/C=c3/cc4c(c(-c5ccc(F)cc5)n3)=Nc3ccccc3-4)c2c1
Marked response: inactive

Exam item: Kindly provide the recorded test outcome for the following compound: Cn1c(N2NC(=O)C(N=Nc3ccc(S(N)(=O)=O)cc3)C2=O)nc(-c2ccco2)c(C#N)c1=O (configuration not stated)
Marked response: inactive

Exam item: Kindly provide the recorded test outcome for the following compound: COc1cc(/C(C)=C(\c2ccc(Cl)cc2)c2ccc(OCCN3CCCC3)cc2)ccc1F
Marked response: active

Exam item: Kindly provide the recorded test outcome for the following compound: COc1cc(C=O)ccc1OC1OC(COC(C)=O)C(OC(C)=O)C(OC(C)=O)C1OC(C)=O (configuration not stated)
Marked response: inactive

###

Measured growth values are reported for all entries that follow.
test system: NCI-H226 lung; test: NCI-60 one-dose screen, 48 h (100 = growth as untreated, 0 = no growth, -100 = all killed); details: 10 µM unless noted
The panel holds about 83,000 compounds, 20% with a hit somewhere; the sample as a whole holds those more often.
Note: unit % is implicit; provide only the numeric part.

CN1CCN(CCNc2nccc(-c3c(-c4cccc(O)c4)nc4sccn34)n2)S1(=O)=O | 100
C=CCn1c(-c2ccc(-c3nc4ccc(C)cc4[nH]3)cc2)n[nH]c1=S | 94.1
O=C(CCN1CCCC1)Nc1ccc2c(NCCc3ccccc3)c3ccccc3nc2c1 | -19.8

Field: next molecule
Exam item: // lookup growth for COc1cc2c(=O)n(CCN)c3c4cc5c(cc4ccc3c2cc1OC)OCO5
Marked response: -66

###

system: NCI-H460 lung; experiment: NCI-60 one-dose screen, 48 h (100 = growth as untreated, 0 = no growth, -100 = all killed); conditions: 10 µM unless noted
Compounds without any hit were thinned out: in the full panel of roughly 83,000, 20% have a hit.
ENDPOINT: growth (%)
Note: unit % is implicit; provide only the numeric part.

N/C(=N\C(N)=N\c1nc2ccccc2s1)c1ccnc(Br)c1 | 16.4
C[C@H](c1nc2ccc(N)cc2[nH]1)[C@H]1CC[C@H]2[C@@H]3CCC4=CC(=O)CC[C@]4(C)[C@H]3CC[C@]12C | 97.1
CCCOC(=O)N[C@H]1CCc2c(Cl)c(OC)c(OC)c(OC)c2-c2ccc(SC)c(=O)cc21 | 1.99
COc1ccc(OC)c(-c2cc(-c3ccc(Cl)cc3)c3c(N)c(C(=O)c4ccc(Cl)cc4)sc3n2)c1 | 105
O=C(Nc1ccc(NC(=O)c2cc(=O)[nH]c3ccccc23)cc1)Nc1cccc(Cl)c1 | 86.3
Cc1ccc(C(=O)/C(=C/c2ccc([N+](=O)[O-])cc2)SCc2ccc(Cl)cc2)cc1 | 74.6

Field: next compound
Exam item: // lookup growth for OCc1cnccc1NCCCOc1ccccc1
Marked response: 106
